Where these numbers come from: patent US8765727B2

Answer each item with its documented IC50.
Target Entity: UniProt P29597
Sequence (P29597 whole entry, species assumed): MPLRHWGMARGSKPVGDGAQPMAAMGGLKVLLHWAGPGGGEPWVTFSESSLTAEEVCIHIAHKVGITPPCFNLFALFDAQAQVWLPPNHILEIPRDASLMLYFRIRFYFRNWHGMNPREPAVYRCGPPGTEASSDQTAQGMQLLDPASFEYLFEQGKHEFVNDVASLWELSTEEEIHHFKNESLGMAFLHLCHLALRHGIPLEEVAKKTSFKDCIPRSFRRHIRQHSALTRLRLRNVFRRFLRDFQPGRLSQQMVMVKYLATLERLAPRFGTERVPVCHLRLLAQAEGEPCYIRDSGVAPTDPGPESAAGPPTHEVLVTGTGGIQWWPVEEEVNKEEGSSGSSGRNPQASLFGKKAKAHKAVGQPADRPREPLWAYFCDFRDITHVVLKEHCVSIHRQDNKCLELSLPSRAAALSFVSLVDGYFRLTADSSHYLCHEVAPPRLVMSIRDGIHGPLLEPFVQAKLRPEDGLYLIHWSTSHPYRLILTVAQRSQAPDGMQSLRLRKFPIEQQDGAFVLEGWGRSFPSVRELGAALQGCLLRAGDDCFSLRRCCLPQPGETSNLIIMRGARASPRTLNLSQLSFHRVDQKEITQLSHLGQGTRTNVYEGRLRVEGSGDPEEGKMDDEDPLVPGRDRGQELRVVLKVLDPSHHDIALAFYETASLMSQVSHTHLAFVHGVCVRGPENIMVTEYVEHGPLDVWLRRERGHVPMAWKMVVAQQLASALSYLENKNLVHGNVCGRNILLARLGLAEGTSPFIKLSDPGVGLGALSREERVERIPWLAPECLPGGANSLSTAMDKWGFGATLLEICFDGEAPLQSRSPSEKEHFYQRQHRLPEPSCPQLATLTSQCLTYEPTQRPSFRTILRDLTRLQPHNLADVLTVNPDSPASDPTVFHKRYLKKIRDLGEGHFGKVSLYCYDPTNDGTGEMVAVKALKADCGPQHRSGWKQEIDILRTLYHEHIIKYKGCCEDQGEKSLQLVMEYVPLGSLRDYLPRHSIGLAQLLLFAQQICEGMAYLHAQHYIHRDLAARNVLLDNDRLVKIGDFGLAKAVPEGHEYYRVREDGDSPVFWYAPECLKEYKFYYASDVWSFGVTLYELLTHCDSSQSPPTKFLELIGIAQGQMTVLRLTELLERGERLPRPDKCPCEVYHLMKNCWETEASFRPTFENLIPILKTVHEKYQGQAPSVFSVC
Where a name gives a salt, the structure may show the parent alone.
Numbers only, in nM.

[[record]]
compound = "O=S1(=O)Nc2cccc(c2)CNc2nc(ncc2Cl)Nc2cccc1c2 [Example 3, trifluoroacetate]"
output_unit = "nM"
value = 830

[[record]]
compound = "Clc1cnc2nc1NCCc1cccc(c1)OCc1cccc(c1)N2"
output_unit = "nM"
value = 438


Query compound follows.
[Q] Item Clc1cnc2nc1NCc1cc(Br)cc(c1)OCCCc1cccc(c1)N2 has what recorded IC50?
[A] 149

* * *

Target Entity: human JAK2 (a.a. 828-1132) catalytic domain (Homo sapiens (Human))
Sequence (O60674 828-1132): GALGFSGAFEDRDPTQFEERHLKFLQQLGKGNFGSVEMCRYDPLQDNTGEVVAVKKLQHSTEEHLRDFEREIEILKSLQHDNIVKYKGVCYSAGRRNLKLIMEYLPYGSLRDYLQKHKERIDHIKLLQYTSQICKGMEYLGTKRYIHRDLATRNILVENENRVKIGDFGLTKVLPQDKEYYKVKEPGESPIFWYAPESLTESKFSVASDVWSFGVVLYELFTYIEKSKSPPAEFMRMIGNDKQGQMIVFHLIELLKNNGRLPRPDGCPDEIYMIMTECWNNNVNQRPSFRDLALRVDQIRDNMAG
Assay Protocol: In vitro JAK kinase assay (HTRF), JAK2
Type: biochemical
Assay Setup: 30 μM ATP, 500 nM peptide, room temperature 1 hr
Assay Readout: IC50 (nM)
Answers are plain numbers, in nM.

Illustrative cases are given below, each with its answer.
[[record]]
compound = "Clc1cnc2nc1NCCCc1cccc(c1)OCCc1cccc(c1)N2 [Example 13]"
value = 25

[[record]]
compound = "Clc1cnc2nc1NCc1cc(ccc1-c1ccccc1)OCCCc1cccc(c1)N2 [Example 15]"
value = 41


Query compound follows.
[Q] Please provide the recorded IC50 for Clc1cnc2nc1NCCc1cccc(c1)OCCc1cccc(c1)N2 [Example 9] , tested on human JAK2 (a.a. 828-1132) catalytic domain (Homo sapiens (Human)).
[A] 23
